- System: HepG2
- Test protocol: GSK_TCMDC: Percent inhibition of human HepG2 cell line. Test compounds present at 10uM.
- Assay type: functional
Classify by measured Inhibition: 1 (yes) if it is equal to or exceeds 40%, 0 (no) if it is smaller.

Use the examples below as a reference point.
Query: Confirm if Inhibition reported for the molecule O=C(NCCN1CCCC1)c1ccc(-c2ccc(-c3nc4ccccc4[nH]3)s2)cc1 is 40% or above.
Response: 0 (no)

Query: Would you say Cl.N#Cc1ccc2c(c1)CN(CCC1CCC(NC(=O)c3cc4cc(OC(F)(F)F)ccc4[nH]3)CC1)CC2 (stereo unspecified) shows Inhibition at minimum 40%?
Response: 0 (no)

Query: Please tell me: is the molecule O=C(/C=C/c1ccc(C(F)(F)F)cc1)NCCCCCN1CCCN(C(=O)Nc2ccc(F)c(Cl)c2)CC1 at or over 40% in terms of Inhibition?
Response: 0 (no)

Query: Quick check: does NC1CCN(c2nc(NCCCc3ccc(O)cc3)nc(NCc3cccc4ccccc34)n2)CC1.O=C(O)C(F)(F)F have Inhibition greater than or equal to 40%?
Response: 0 (no)

Query: Answer whether Inhibition of CCC1N=C(N)N=C(N)N1OCc1cccc2ccccc12 (stereo unspecified) is greater than or equal to 40%.
Response: 1 (yes)

Query: Is reported Inhibition greater than or equal to 40% here: COc1ccc(CNC(=O)c2cnc3c(O)cccc3c2Nc2cccc(NC(=O)c3ccc(-c4ccccc4)cc3)c2)cc1.O=C(O)C(F)(F)F
Response: 1 (yes)

Query: Check if Inhibition >= 40% (inclusive). Item: Cn1cncc1-c1cc2c(Nc3ccc(OCc4ccccc4)cc3)ncnc2cn1
Response: 0 (no)

Query: Threshold query (Inhibition >= 40%) on O=C(O)C(F)(F)F.O=[N+]([O-])c1cccc(CNC2CCN(Cc3ccc4ccccc4c3)CC2)c1
Response: 0 (no)

Query: Is reported Inhibition greater than or equal to 40% here: Cc1cc(N(C)C)nc(Nc2ccc(NC(=O)Nc3ccccc3)cc2)n1
Response: 0 (no)

Query: State whether the measured Inhibition reaches 40%, counting equality as reaching it, for O=C(Nc1ccc(-c2csc(-c3nc4ccccc4[nH]3)c2)cc1)Nc1ccc(F)c(F)c1F
Response: 1 (yes)

***
Query: Does the reported Inhibition for CCOc1ccc2nc3cc(NC(=O)c4ccco4)ccc3c(N)c2c1 fall at or above the 40% mark?
Response: 0 (no)

Query: Form field: Inhibition at least 40%? Entry: CCN(CCCN1CCCCC1)c1cc(C)nc(Nc2ccc(Br)cc2F)n1.O=C(O)C(F)(F)F
Response: 0 (no)

Query: Quick check, Inhibition >= 40%? CNC(=O)c1cnc(Nc2ccc(N3CCOCC3)cc2)nc1Nc1cccc(OC)c1.O=C(O)C(F)(F)F
Response: 0 (no)

Query: Dear colleague, could you confirm whether CCOC(=O)NC1=NC(C)(C)N(OCCCOc2cc(Cl)c(Cl)cc2Cl)C(NC(=O)OCC)=N1 has Inhibition at or above 40%?
Response: 1 (yes)

Query: Hi, just wondering whether Cc1ncc(CN2CCC(C(=O)Nc3ccc(-c4nc5ccccc5o4)cc3)CC2)s1 shows Inhibition of 40% or higher.
Response: 0 (no)

Query: // inclusive: Inhibition at least 40%? input: CCCCCN1CCCCC(NS(=O)(=O)c2ccc(C(=O)Nc3ccc(C(F)(F)F)cc3)cc2)C1.O=C(O)C(F)(F)F (stereo unspecified)
Response: 0 (no)

###

- System: Plasmodium falciparum
- Test protocol: GSK_TCMDC: Inhibition of Plasmodium falciparum Dd2 in whole red blood cells, using parasite LDH activity as an index of growth. Test compounds present at 2uM
- Type: functional
Item-by-item account of Inhibition
// return numeric value only (unit: %, not printed)

# count of solved cases: 5
Query: Item CCCC(C)Nc1nc(C)cc(N[C@@H](Cc2ccccc2)C(=O)NCCc2ccccc2)n1.O=C(O)C(F)(F)F (stereo not given in full) has what recorded Inhibition?
Response: 68

Query: # input compound: CSc1nnc2n(Cc3ccccc3)c(=O)c3c(n12)-c1ccccc1CC31CCCCC1 ; wanted: its Inhibition
Response: 0

Query: May I ask what Inhibition has been recorded for Cl.O=c1cc(NCCCNCc2cc3ccccc3s2)[nH]c2ccccc12 ?
Response: 0

Query: Param item = CC(C)(C)c1ccc(-c2ccccc2CNC(=O)c2cccc(O)c2)cc1 ; retrieve measured Inhibition.
Response: 88

Query: What does the record list as Inhibition for COc1ccc(-n2ccnc2SCC(=O)Nc2cc(Cl)ccc2OC)c(OC)c1 ?
Response: 92

Next:
Query: Name the reported Inhibition value associated with the compound CC(=O)Nc1ccc(Nc2ncc([N+](=O)[O-])c(Nc3ccccc3C(N)=O)n2)cc1.Cl
Response: 97

Query: Recorded Inhibition for COc1ccccc1-c1[nH]c2ccccc2c1CN1CCC(c2c(C)cccc2C)CC1 , please?
Response: 13

Query: Requested field: Inhibition. Item: CN(C)c1ccc2c(c1)Sc1cc(N(C)C)ccc1N2C(=O)CCCC(=O)[O-].[Na+]
Response: 81

Query: Item under review: CN1CCCC1CCNCc1ccc(-c2ccc(CNCCc3ccccc3)cn2)cc1.O=C(O)C(F)(F)F (stereo not given) . Reported Inhibition?
Response: 99

Query: Tell me the measured Inhibition of CCNc1cc(C)nc(Nc2ccc(F)cc2)n1 , please.
Response: 57

###

Inhibition values by entry
- Test system: Plasmodium falciparum
- Test protocol: GSK_TCMDC: Inhibition of Plasmodium falciparum Dd2 in whole red blood cells, using parasite LDH activity as an index of growth. Test compounds present at 2uM
- Type: functional
Dear colleague, please return just the value in %, with no unit written.

Query: Find the recorded Inhibition belonging to CCn1c(-c2ccccc2)cc2nnc3ccccc3c21 and report it.
Response: 87

Query: Reported Inhibition for CNC(=O)c1cnc(Nc2ccc(N3CCOCC3)cc2)nc1Nc1cccc(O)c1.O=C(O)C(F)(F)F : what is it?
Response: 78

Query: Could you share which Inhibition value was measured for Cc1noc(-c2cccs2)c1C(=O)NCCc1cccc(Cl)c1 ?
Response: 95

Query: # Inhibition lookup, item CCn1cc(CN2C(=O)C(c3ccccc3)(c3ccccc3)N=C2N)cn1.O=CO
Response: 60

Query: So what does the record say about Inhibition for CCOc1ccc(C(=O)Nc2cc(Br)c3c(c2)CNCC3)cc1C#N.Cl ?
Response: 32

Query: Could you tell me which Inhibition is on file for CCNC1=NC2=C(CC(C(C)(C)C)CC2)C2(CCC(C(C)(C)C)CC2)S1.Cl (stereo not given) ?
Response: 99

More entries:
Query: Inhibition for CCOC(=O)NCC(=O)Nc1cccc(-c2cccc(-c3nc4cc(C(F)(F)F)ccc4[nH]3)c2)c1 ?
Response: 34

Query: Quick one: Inhibition of CCc1cccc2c(C#N)cn(CC(=O)NCCc3ccccc3)c12 ?
Response: 64

Query: Fill in: Inhibition of COc1ccc(CNC2CCN(C)CC2)cc1-c1ccc(S(=O)(=O)NCCc2ccccn2)c(F)c1.O=C(O)C(F)(F)F is ___
Response: 55

Query: # get_value(readout='Inhibition', item= COc1cc(NCC(C)CNCc2cn(Cc3ccccc3)c3ccccc23)nc2ccccc12 (stereo not given) )
Response: 55

###

- System: Plasmodium falciparum
- Test protocol: GSK_TCMDC: Inhibition of Plasmodium falciparum 3D7 in whole red blood cells, using parasite LDH activity as an index of growth. Test compounds present at 2uM
- Assay type: functional
Below: a set of entries, each annotated with reported Inhibition.

Answered examples (3):
Query: Param item = O=c1cc(NCCCNCc2ccc(C(F)(F)F)c(F)c2)[nH]c2ccccc12 ; retrieve measured Inhibition.
Response: 93%

Query: Item CCCOc1ccc(-c2nonc2NC(=O)c2cccc(OC)c2)cc1OCCC has what recorded Inhibition?
Response: 94%

Query: Request the reported Inhibition associated with O=C(Nc1ccc2c(c1)CCN2C1CCN(Cc2ccc(C(F)(F)F)cc2F)C1)c1ccco1 (centres undefined)
Response: 91%

New cases:
Query: Find the recorded Inhibition belonging to COc1cc2nc(N(C)C)nc(Nc3ccc(OCc4ccccc4)cc3)c2cc1OC and report it.
Response: 100%

Query: Any idea what its Inhibition is? The compound is CC(O)C1CCCCN1C(=O)c1cccc(-c2ccc(-c3nc4cc(C(F)(F)F)ccc4[nH]3)cc2)c1 (centres undefined)
Response: 100%

Query: So what does the record say about Inhibition for Cc1cc(NC(=O)CCN2CCN(c3cccc(Cl)c3Cl)CC2)ccc1N1CCN(C(C)C)CC1.Cl ?
Response: 99%

Query: Given COc1ccc2nccc([C@@H](O)CN3CCC(NC(=O)c4ccc(-c5ccccc5)s4)CC3)c2c1 , state its recorded Inhibition.
Response: 100%

Query: What does the record list as Inhibition for Cc1noc(C)c1-c1cccc(CNCc2cccc(-c3cccc(-c4nc5cc(C(F)(F)F)ccc5[nH]4)c3)c2)c1.O=C(O)C(F)(F)F ?
Response: 100%

Query: Any idea what Inhibition was measured for COc1ccc(OC)c(-c2cccc(-c3cccc(NC(=O)c4ccc([N+](=O)[O-])o4)c3)n2)c1 ?
Response: 98%

Query: Look up Inhibition for this compound: COc1ccc(C2C(C(=O)Nc3cc(C)ccc3OC)c3ccccc3C(=O)N2C)cc1 (centres undefined)
Response: 86%

Query: Looking for the measured Inhibition of FC(F)(F)c1ccc2[nH]ccc(=NN=Cc3cccnc3)c2c1 , can you help?
Response: 100%

Query: What value of measured Inhibition is listed for Cc1ccc2nc(-c3ccc(C(=O)NC4CCN(Cc5ccccc5)CC4)s3)[nH]c2c1 ?
Response: 97%

Query: Quick check: Inhibition of Br.CCCOc1ccc(CCCON2C(N)=NC(N)=NC2(C)C)cc1 ?
Response: 95%

Query: Could you tell me which Inhibition is on file for CCc1cc2c(=O)c(-c3nc(C)cs3)c([C@H](N)Cc3ccc(O)cc3)oc2cc1O.O=C(O)C(F)(F)F ?
Response: 100%

Query: Inhibition; subject: Cc1ccc2c(=NN=CC=Cc3ccccc3)cc(C)[nH]c2c1
Response: 92%

Query: What value of Inhibition has been recorded for this entry: O=C(Cc1ccc(Cl)cc1)NC1CCN(c2ccnc3cc(Cl)ccc23)C1.O=C(O)C(F)(F)F (centres undefined)
Response: 82%

Query: Fill in: Inhibition of COc1ccc(CSC2CCCCC23NC(=S)NC3=S)cc1 (centres undefined) is ___
Response: 97%

Query: Given O=S(=O)(c1ccc(OC(F)(F)F)cc1)C1CC2CCC(C1)N2S(=O)(=O)c1ccc(Cl)c(C(F)(F)F)c1 (centres undefined) , state its recorded Inhibition.
Response: 100%

Query: So what's the measured Inhibition for this one? CC(C)(C)c1ccc(CN2CCC(NC(=O)c3ccc(-c4cccc(F)c4)s3)CC2)cc1.O=C(O)C(F)(F)F
Response: 92%

These measurements were taken from ChEMBL document CHEMBL1157539.
